system: NCI-H23; experiment: NCI tumour cell line growth inhibition, 48 h
The source made the active and inactive calls. Cut-off read from the data, not from the text of the source: active = GI50 up to about 1.1 µM and inactive = higher.
Possible outcomes: active, inactive

molecule	cat
COc1cc(O)c(C(=O)/C=C/c2ccc(OC)c(OCc3ccccc3)c2)c(OC)c1	inactive
CC1=C(SCCO)C(=O)c2ccccc2C1=O	inactive
CC(=O)NC1C(OCc2ccccc2)OC(CO)C(O)C1OC(C)C(=O)NC(C)C(=O)NC(CCC(=O)NCCCCNc1c2ccccc2nc2cccc([N+](=O)[O-])c12)C(N)=O (stereo unspecified)	active
COc1cc(C(=O)OCCn2[nH]c(-c3ccc(Cl)cc3)nc2=S)cc(OC)c1OC	inactive
NNC(=O)c1cc(=O)[nH][nH]1	inactive
CCOC1CN(C)/C(=N\c2cccc3ccccc23)S1 (stereo unspecified)	inactive

---

tested on: Malme-3M; experiment: NCI tumour cell line growth inhibition, 48 h
Activity calls are given as the source filed them. Cut-off read from the data, not from the text of the source: active = GI50 up to about 1.1 µM and inactive = higher.

compound	GI50
O=S(=O)(O)c1cc(/N=N/c2c(O)ccc3ccccc23)c2c(S(=O)(=O)O)cccc2c1	> 100 µM (inactive)
Cc1[nH]c(-c2ccccc2)c2nc(N(C)C)oc(=O)c12	> 100 µM (inactive)
O=C(/C=C/c1ccccc1)CSc1nc[nH]n1	> 100 µM (inactive)
CC(=O)Nc1ccc(S(=O)(=O)N/N=C/c2cc(I)cc([N+](=O)[O-])c2O)cc1	46.3 µM (inactive)
COc1ccc(-c2cc(=O)c3c(O)c(OC)c(OC)c(OC)c3o2)cc1	> 28.6 µM (inactive)
C=CC(=O)c1ccc2c(c1)OCCOCCOCCOCCOCCO2	18.5 µM (inactive)
COc1cc(-c2cc(-c3cc([N+](=O)[O-])c(/C=N/NC(=O)c4ccncc4)o3)ccc2OC)ccc1C	> 100 µM (inactive)
COc1cc(NCc2ccc3nc(-c4ccccc4)c(N)nc3c2)cc(OC)c1OC	24.9 µM (inactive)
COC(=O)C1=C(C)C(=O)C2(CCCCCC2C(=O)OC)C1 (stereo not given)	> 100 µM (inactive)
CC(=O)OC/C=C(\C)CCC(Br)C(C)(C)Br (stereo not given)	> 10 µM (inactive)

---

GI50 values by entry
system: CAKI-1; experiment: NCI tumour cell line growth inhibition, 48 h
The source made the active and inactive calls. No stated cut-off is given here; in the data, active = GI50 up to about 1.1 µM and inactive = higher.

molecule	GI50
N=C(N)N/N=C/c1c(-c2ccc(N)cc2)nc2sccn12	33.7 µM (inactive)
Cc1[nH]c2ccccc2c1/C=C/c1c(C)[nH]c2ccccc12	> 100 µM (inactive)
Nc1n[nH]c2c1Cc1c(n(Cc3ccc(Cl)cc3)c3ccccc13)C(=O)N2	11.4 µM (inactive)
CN1C(c2ccccc2)=CC(=O)C(O)=C(c2ccccc2)S1(=O)=O	> 100 µM (inactive)
O=C1OC(CN2CCOCC2)CN1/N=C/c1ccc([N+](=O)[O-])o1 (stereo unspecified)	38.5 µM (inactive)
O=C1CSC(c2ccccc2O)N1c1ccc(-n2c(-c3ccccc3)nc3ccccc3c2=O)cc1 (stereo unspecified)	29.2 µM (inactive)

---

tested on: ACHN; assay: NCI tumour cell line growth inhibition, 48 h
The source made the active and inactive calls. No stated cut-off is given here; in the data, active = GI50 up to about 1.1 µM and inactive = higher.
Possible outcomes: active, inactive

compound	cat
O=C1c2ccccc2NC(c2cc(Cl)cc(Cl)c2O)N1CCc1ccccn1 (stereo not given)	inactive
CCN(CC)CCC1CCCCN1CC(=O)N1c2ccccc2NC(=O)CC1C (stereo not given)	inactive
CC1=C(SCCO)C(=O)c2ccccc2C1=O	inactive
Clc1ccc(Cc2nc3ccccc3s2)c(Cl)c1	inactive
O=S(=O)(O)c1ccc(/N=N/c2ccc(/N=N/c3c(O)ccc4ccc(S(=O)(=O)O)cc34)cc2)cc1	inactive
Brc1ccc2[nH]cc([C@@H]3CN[C@@H](c4c[nH]c5ccc(Br)cc45)CN3)c2c1	inactive
C=C1CC[C@@H](Br)C(C)(C)[C@]12CCC(C)(O)C(Cl)C2 (stereo not given in full)	inactive
C=C(C)[C@@H]1CC[C@]2(C(=O)O)CC[C@]3(C)[C@H](CC[C@@H]4[C@@]5(C)CC[C@H](O)C(C)(C)[C@@H]5CC[C@]43C)[C@@H]12 [BETULINIC ACID]	inactive
C=C1C(=O)O[C@@H]2C(=O)[C@@H](C)[C@@H]3C=CC(=O)[C@@]3(C)[C@@H](OC(=O)/C(C)=C\C)[C@H]12 [MULTISTATIN]	active
NC(=O)c1cc2ccccc2o/c1=N/c1ccccc1	inactive

---

tested on: SF-539; experiment: NCI tumour cell line growth inhibition, 48 h
Calls of active or inactive are those of the source. Rule as the data show it: active = GI50 up to about 1.1 µM and inactive = higher.
GI50 values by entry

compound	GI50
c1cc2c3ccsc3c3sccc3c2s1	90.8 µM (inactive)
O=C(/C=C/c1ccccc1)CSc1nc[nH]n1	> 100 µM (inactive)
C[N+](C)(C)CC1CCCc2ccccc2C1=O (stereo unspecified)	17.4 µM (inactive)
O=C1C(Br)=C(c2ccccc2)C(c2ccccc2)=C1c1ccccc1	3.01 µM (inactive)
COc1cc(-c2cc(-c3cc([N+](=O)[O-])c(/C=N/NC(=O)c4ccncc4)o3)ccc2OC)ccc1C	> 100 µM (inactive)
COc1ccc(-c2cc(=O)c3c(O)c(OC)c(OC)c(OC)c3o2)cc1 [GARDENIN B]	> 61.7 µM (inactive)

---

system: SW-620; test: NCI tumour cell line growth inhibition, 48 h
Calls of active or inactive are those of the source. Rule as the data show it: active = GI50 up to about 1.1 µM and inactive = higher.
Possible outcomes: TRUE for active, FALSE for inactive

molecule	cat
CN(C)CCNc1ccccn1	FALSE
CC(=O)OCCc1cccnc1/C=N/O	FALSE
O/N=C/c1ccc(O)c(O)c1	FALSE
CCN(CC)C(=S)N/N=C(/c1ccccc1)c1ccccn1	TRUE
CCOC(=O)c1sc2c(C(=O)OCC)n3ccccc3c2c1N	FALSE
CCOC(=O)CCCNC(=O)CCCCC(=O)N(C)C	FALSE
CNC(=O)CCCNC(=O)CCCC(=O)N(C)C	FALSE
COc1cc(C2S/C(=C/c3ccccc3)C(=O)N2c2cc(Cl)c(Cl)cc2Cl)cc(OC)c1OC (stereo unspecified)	FALSE
O=C(/C=C/c1ccccc1)CSc1nc[nH]n1	FALSE
CC(=O)Nc1ccc(S(=O)(=O)N/N=C/c2cc(I)cc([N+](=O)[O-])c2O)cc1	FALSE
O=C1OC(CN2CCOCC2)CN1/N=C/c1ccc([N+](=O)[O-])o1 (stereo unspecified) [FURALTADONE]	FALSE
O=[N+]([O-])c1cccc(C(O)/C(=N/Nc2ccccc2)C2Nc3ccc([N+](=O)[O-])cc3N=C2O)c1 (stereo unspecified)	FALSE
CCN1CN(c2ccccc2)C2(CCN(CCCSc3ccc(F)cc3)CC2)C1=O	FALSE
CC1CCCC2(CC[N+](C)(CCC[N+](C)(C)C)CC2)C1 (stereo unspecified)	FALSE
COC(=O)C1=C(C(=O)OC)SC(=C2SC3=C(SC(=C4SCCS4)S3)S2)S1	FALSE
c1cncc(CSc2ncnc3[nH]cnc23)c1	FALSE
Cc1cc2sc(C)[n+](CCCOS(=O)(=O)[O-])c2cc1C	FALSE
CS(=O)(=O)OCCCOS(C)(=O)=O	FALSE
OC[C@H]1O[C@@H](Oc2cc(O)cc(/C=C/c3ccc(O)cc3)c2)[C@H](O)[C@@H](O)[C@@H]1O [PICEID]	FALSE
N#Cc1c(N)c2c(c(-c3ccccc3)c1-c1ccccc1)C(=O)N(NC(=S)Nc1ccccc1)C2=O	FALSE
N=C(N)NC(=N)Nc1ccc(S(=O)(=O)O)cc1	FALSE
CCN1/C(=C/C(C)=C/c2sc3ccccc3[n+]2CC)Sc2ccccc21	TRUE
O=C1OCOC2(CCCC2)C1c1ccccc1 (stereo unspecified)	FALSE
Cc1cc(N(CCC#N)CCC#N)ccc1/N=N/c1ccc(C(=O)O)cc1	FALSE
C#CCNC(CCCNC(=N)N)C(=O)O (stereo unspecified)	FALSE
Oc1ccc2c(c1)OCC1c3ccccc3OC21 (stereo unspecified)	FALSE
CSCCCNC(=O)c1csc(-c2csc(CCNC(=O)CNC(=O)CNC(=O)CNC(=O)OC(C)(C)C)n2)n1	FALSE
O=c1oc2ccccc2n1P(=O)(Oc1ccc(Cl)cc1)n1c(=O)oc2ccccc21	FALSE
N/C(S)=N/N=C/c1ncccc1O	FALSE
CCOC1(OCC)N=C(N)C2(C#N)C3(C(=O)N(C(C)C)N=C3C)C12C#N (stereo unspecified)	FALSE
COC(=O)[C@@]12OC[C@]34C([C@@H](O)C1O)[C@@]1(C)CC(=O)C(O)=C(C)C1C[C@H]3OC(=O)[C@H](OC(=O)CC(C)C(F)(F)F)[C@H]42 (stereo partly specified)	TRUE
O=C(O)c1ccc(/C=N/N=C2c3ccccc3-c3ccccc32)cc1	FALSE
CCOP(=O)(CC1CC(O)(CNc2cc(Cl)nc(N)n2)C1)OCC (stereo unspecified)	FALSE
CC1(C)OC[C@H](C(=N)OCc2ccccc2)O1	FALSE
CC(C)(Cl)C(Cl)CC/C(CBr)=C(\Cl)CCl (stereo unspecified)	FALSE
COc1ccc2c3c1OC1C(OC)(OC)CC4(C=C2)CN(C)CCC314 (stereo unspecified)	FALSE
O=Cc1ccc(-c2nccc3c2[nH]c2ccccc23)o1	FALSE
CCCCN/C(=N/C#N)NCc1ccccc1	FALSE
N/C(=N\O)N/N=C/c1ncccc1O	FALSE
Cc1ccc(/N=C/c2ccc3c(c2)OCO3)cc1C	FALSE
CN(C)/C=N\c1nc(=O)n(C2CCC(CO)O2)cc1F (stereo unspecified)	FALSE
Nc1nncc2[nH]nnc12	FALSE
COC(=O)CCC(=O)N1Cc2cc(C)ccc2N(C(=O)CCC(=O)OC)Cc2cc(C)ccc21	FALSE
Fc1cccc(C2SCc3nc4ccccc4n32)c1 (stereo unspecified)	FALSE
Cc1cccc2c(NCCCN(C)C)c3c([N+](=O)[O-])ccc(C)c3nc12	TRUE
c1ccc(C2N3CCCCC3[C@@H]3c4[nH]c5ccccc5c4CCN23)nc1 (stereo partly specified)	FALSE

Where do these numbers come from? They come from ChEMBL document CHEMBL1201862.
